Attribute: normalised viability
Test system: Hs578T
assay.name: normalised viability (% of control), CellTiter-Blue; higher = more viable cells (about 100 = DMSO control)
test.settings: 10 nM; incubation time: 72 h
Your answer is read as %, so omit the unit and give the number.

Would you please look over these solved cases?
>  <molecule>
Cc1c(C(=O)Nc2ccc(N3C[C@@H](C)O[C@@H](C)C3)nc2)cccc1-c1ccc(OC(F)(F)F)cc1

>  <unit.name>
%

>  <normalised viability>
118

$$$$
>  <molecule>
O=NN(CCCl)C(=O)NC1CCCCC1

>  <unit.name>
%

>  <normalised viability>
105

$$$$
>  <molecule>
C[C@@H](C(=O)O)c1ccc(-c2ccccc2)c(F)c1

>  <unit.name>
%

>  <normalised viability>
97.7

$$$$
>  <molecule>
O=C(c1cc(Cc2n[nH]c(=O)c3ccccc23)ccc1F)N1CCN(C(=O)C2CC2)CC1

>  <unit.name>
%

>  <normalised viability>
110

$$$$
>  <molecule>
C[C@@H]1C[C@H]2[C@@H]3CCC4=CC(=O)C=C[C@]4(C)[C@@]3(F)[C@@H](O)C[C@]2(C)[C@@]1(O)C(=O)CO

>  <unit.name>
%

>  <normalised viability>
120

$$$$

# ---- query molecule ----
[Q] For the molecule CC(C)C(=O)Nc1ccc([N+](=O)[O-])c(C(F)(F)F)c1 [Flutamide] , what normalised viability is on record?
[A] 96.4

----------
System: MDA-MB-231
assay.name: normalised response (% of control), CellTiter-Glo; higher = more viable cells (100 = DMSO, 0 = benzethonium chloride kill control)
test.settings: incubation time: 72 h
measured.parameter: normalised response (%)
Give the quantity in %, number only.

// below: answered compounds
>  <compound>
CCc1c(C(=O)C(N)=O)c2c(OCC(=O)O)cccc2n1Cc1ccccc1 [Varespladib] (10 nM)

>  <normalised response [%]>
99.7

$$$$
>  <compound>
CC(C)(C)Cn1c(N)nc2ccc(-c3[nH]c(C(C)(C)C)nc3-c3ccc(F)cc3)nc21 (1 nM)

>  <normalised response [%]>
99.3

$$$$
>  <compound>
CN1CCc2c(c3ccccc3n2Cc2ccc(C(=O)NO)cc2)C1 [Tubastatin A] (1 nM)

>  <normalised response [%]>
96.8

$$$$

[Q] Requested field: normalised response. Item: C[C@]12C=CC(=O)C=C1CC[C@@H]1[C@@H]2C(=O)C[C@@]2(C)[C@H]1CC[C@]2(O)C(=O)CO [Prednisone] (1 nM)
[A] 98.5

----------
Overview of reported normalised viability across a group of compounds:
Tested on: CAL-85-1
assay.name: normalised viability (% of control), CellTiter-Blue; higher = more viable cells (100 = DMSO, 0 = benzethonium chloride kill control)
test.settings: incubation time: 72 h
The answer consists of two parts: a number and, after it, its unit.

As a guide, the following entries are already answered.
>  <compound>
CCN(CC)CCOc1ccc(C(=C(Cl)c2ccccc2)c2ccccc2)cc1 [Clomifene] (1 nM)

>  <test.target>
CAL-85-1

>  <normalised viability>
89%

$$$$
>  <compound>
COc1cc2c(Oc3ccc(NC(=O)C4(C(=O)Nc5ccc(F)cc5)CC4)cc3F)ccnc2cc1OCCCN1CCOCC1 [Foretinib] (0.1 nM)

>  <test.target>
CAL-85-1

>  <normalised viability>
90.2%

$$$$
>  <compound>
CC(C)C(=O)Nc1ccc([N+](=O)[O-])c(C(F)(F)F)c1 [Flutamide] (1 nM)

>  <test.target>
CAL-85-1

>  <normalised viability>
96.8%

$$$$
>  <compound>
NC(=O)NO [Hydroxyurea] (10 nM)

>  <test.target>
CAL-85-1

>  <normalised viability>
109%

$$$$
>  <compound>
N[C@@H](Cc1ccc(N(CCCl)CCCl)cc1)C(=O)O [Melphalan] (0.099 nM)

>  <test.target>
CAL-85-1

>  <normalised viability>
85.7%

$$$$

[Q] # input compound: CO[C@H]1C[C@@H]2CC[C@@H](C)[C@@](O)(O2)C(=O)C(=O)N2CCCC[C@H]2C(=O)O[C@H]([C@H](C)C[C@@H]2CC[C@@H](O)[C@H](OC)C2)CC(=O)[C@H](C)/C=C(\C)[C@@H](O)[C@@H](OC)C(=O)[C@H](C)C[C@H](C)/C=C/C=C/C=C/1C [Sirolimus] (0.1 nM) ; wanted: its normalised viability
[A] 93.9%

[Q] Return reported normalised viability; argument: Cc1cc2c(F)c(Oc3ncnn4cc(OC[C@@H](C)O)c(C)c34)ccc2[nH]1 [Brivanib] (0.1 nM)
[A] 86.7%

[Q] Need normalised viability, item Cc1c(N)nc([C@H](CC(N)=O)NC[C@H](N)C(N)=O)nc1C(=O)N[C@H](C(=O)N[C@H](C)[C@@H](O)[C@H](C)C(=O)N[C@H](C(=O)NCCc1nc(-c2nc(C(=O)NCCC[S+](C)C)cs2)cs1)[C@@H](C)O)[C@@H](OC1OC(CO)C(O)C(O)C1OC1OC(CO)C(O)C(OC(N)=O)C1O)c1cnc[nH]1 (stereo partly drawn) [Bleomycin] (1 nM)
[A] 97.8%
